B1: EHEE_rd2_1257 (parent)
chain: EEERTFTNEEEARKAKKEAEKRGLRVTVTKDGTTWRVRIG

# Variants of: B1
# Protocol description: folding stability dG (cDNA display proteolysis); higher = more stable
# Protocol conditions: PBS, room temperature
For each entry below, report its folding stability dG value.
Quick reminder: number only, in kcal/mol, skip the unit.

*Q* Requested field: folding stability dG. Item: "E11T"
*A* 0.995

*Q* Tell me the measured folding stability dG of "V28F" , please.
*A* 1.45

*Q* Suppose we examine the variant "E3Y" ; what folding stability dG value has been reported?
*A* 2.08

*Q* Returns the measured folding stability dG for the input variant. Input: "K30S"
*A* 2.14

*Q* Fill blank: measured folding stability dG of the variant "T33Q" is ____.
*A* 2.27

*Q* Reported folding stability dG for "G40K" : what is it?
*A* 2.07

*Q* State the recorded folding stability dG for this entry: "A19H"
*A* 1.06

*Q* Consider the variant "R36G" and give its measured folding stability dG.
*A* -0.199
